All figures here come from patent US7888380B2.

- run_description: Standard Rat Pharmacokinetics (PK)
- Assay type: in vivo
- measurement_context: rat plasma, IV 1.7 mg/kg of prodrug; read-out: Prodrug Cmax (μM) IV

[
  {
    "compound_smiles": "CN1CCN(CCC(=O)NS(=O)(=O)c2ccc(Nc3nc(N)n(C(=O)c4c(F)cccc4F)n3)cc2)CC1",
    "Cmax / µM": 23.2
  }
]

* * *

- experimental_target: VEGF-R2 kinase (Rattus norvegicus)
- Construct: 6xHis (polyhistidine) (N)
- Sequence (O08775 786-1343): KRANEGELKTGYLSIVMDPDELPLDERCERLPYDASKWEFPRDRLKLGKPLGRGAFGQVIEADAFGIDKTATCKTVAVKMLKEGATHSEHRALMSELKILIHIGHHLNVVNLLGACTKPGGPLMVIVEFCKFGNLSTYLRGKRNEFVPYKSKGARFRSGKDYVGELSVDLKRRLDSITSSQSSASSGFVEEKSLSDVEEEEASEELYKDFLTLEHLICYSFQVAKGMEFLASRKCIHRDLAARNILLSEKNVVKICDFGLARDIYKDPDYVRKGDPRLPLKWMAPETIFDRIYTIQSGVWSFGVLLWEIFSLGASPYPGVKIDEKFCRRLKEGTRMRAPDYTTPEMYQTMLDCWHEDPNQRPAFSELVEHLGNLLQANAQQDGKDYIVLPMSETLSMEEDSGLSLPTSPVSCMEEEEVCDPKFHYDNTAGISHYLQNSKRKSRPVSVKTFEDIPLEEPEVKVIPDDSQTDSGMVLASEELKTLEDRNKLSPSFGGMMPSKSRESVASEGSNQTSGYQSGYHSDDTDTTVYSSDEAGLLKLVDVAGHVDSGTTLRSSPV
- run_description: VEGF-R2 Kinase Screening Assay
- Assay type: biochemical
- measurement_context: 10 μM ATP; rat VEGF-R2 kinase domain; read-out: IC50 (μM) VEGFR

[
  {
    "compound": "CCCC(=O)NS(=O)(=O)c1ccc(Nc2nc(N)n(C(=O)c3c(F)cccc3F)n2)cc1 [Compound 19]",
    "IC50 / µM": 0.77
  },
  {
    "compound": "Nc1nc(Nc2ccc(S(=O)(=O)NC(=O)COCCOCCOCC(=O)O)cc2)nn1C(=O)c1c(F)cccc1F [Compound 12]",
    "IC50 / µM": 16.8
  },
  {
    "compound": "Nc1nc(Nc2ccc(S(=O)(=O)NC(=O)[C@@H](N)CO)cc2)nn1C(=O)c1c(F)cccc1F [Compound 13]",
    "IC50 / µM": 1.54
  },
  {
    "compound": "CN1CCN(CCC(=O)NS(=O)(=O)c2ccc(Nc3nc(N)n(C(=O)c4c(F)cccc4F)n3)cc2)CC1 [Compound 5]",
    "IC50 / µM": 1.88
  },
  {
    "compound": "CCCCC(=O)NS(=O)(=O)c1ccc(Nc2nc(N)n(C(=O)c3c(F)cccc3F)n2)cc1 [Compound 18]",
    "IC50 / µM": 1.54
  },
  {
    "compound": "CN(C)CC(=O)NS(=O)(=O)c1ccc(Nc2nc(N)n(C(=O)c3c(F)cccc3F)n2)cc1 [Compound 6]",
    "IC50 / µM": 1.22
  },
  {
    "compound": "Nc1nc(Nc2ccc(S(=O)(=O)NC(=O)Cn3cnnn3)cc2)nn1C(=O)c1c(F)cccc1F [Compound 4]",
    "IC50 / µM": 2.34
  }
]

* * *

- experimental_target: CDK2:Cyclin-E (Homo sapiens)
- run_description: CDK2 Screening Assay (33P-ATP FlashPlate)
- Format: biochemical
- measurement_context: 10 μM ATP; >10 or >100 = less than 50% inhibition at highest concentration tested
Quick list: IC50 per entry.

[
  {
    "molecule": "COCCOCC(=O)NS(=O)(=O)c1ccc(Nc2nc(N)n(C(=O)c3c(F)cccc3F)n2)cc1 [Compound 3]",
    "experimental_target": "CDK2:Cyclin-E (Homo sapiens)",
    "IC50 (µM)": 0.25
  },
  {
    "molecule": "C[C@H](N)C(=O)N[C@@H](C)C(=O)NS(=O)(=O)c1ccc(Nc2nc(N)n(C(=O)c3c(F)cccc3F)n2)cc1.O=C(O)C(F)(F)F.O=C(O)C(F)(F)F.O=C(O)C(F)(F)F [Compound 15, TFA salt]",
    "experimental_target": "CDK2:Cyclin-E (Homo sapiens)",
    "IC50 (µM)": 0.1
  },
  {
    "molecule": "NCC(=O)NS(=O)(=O)c1ccc(Nc2nc(N)n(C(=O)c3c(F)cccc3F)n2)cc1 [Compound 2]",
    "experimental_target": "CDK2:Cyclin-E (Homo sapiens)",
    "IC50 (µM)": 0.12
  }
]
